- Tested on: MS2 coat protein
- ASSAY_NAME: apparent KD of MS2 coat protein; higher = weaker reporter binding
- PARTICULARS: Eterna round: R107; input ligand: theophylline 2 mM
Response key: condition met means apparent KD of MS2 coat protein >= 60 nM; condition not met means apparent KD of MS2 coat protein < 60 nM.

Study these solved cases before continuing.
SEQUENCE_CHAIN	TARGET_DESC	ANSWER_LABEL
UUAUAUACUACGGCCGCCACUGAACAUGAGGAUCACCCAUGUAAUGUUCAGACGUCUUUAGACGACAGGACCGGGUAGAAUUAAA [Tryptophan B 1]	MS2 coat protein	condition met
UUCAAAGGGAACGGUGCUGGUAGCAGAGAUACCAGAGUAAUGAUACUCCCUUGGCAGCUCAGUACAUGAGGAUCACCCAUGUAAU [Exclusion Theophylline A GF24]	MS2 coat protein	condition not met

[Q] Is apparent KD of MS2 coat protein at least 60 nM? Consider AGUCACUCGAGGUGAUCUGACGAGUGGCAACGAGGACCGGUACGGCCGCCACUCGAAUAAACAUGAGGAUCACCCAUGUACAAAU [T''-M'-T'-T-MS2 - Design 11]
[A] condition met

[Q] Is apparent KD of MS2 coat protein at least 60 nM? Consider GUCAGUGACUGAAGGAGCGACAUGAGGAUCACCCAUGUCUCCCGUUAUGGGAGUUCCUUAGGUCAGGUAGGUCGCAGUCACUGAC [#1 Exclusion - Arginine B Attempt #29 (Inspired by Omei)]
[A] condition met

[Q] Is apparent KD of MS2 coat protein at least 60 nM? Consider ACAUGAGGAUCACCCAUGUGAGAUAGGGAAGGAGCGCAGGAGGAUGCAGGUAGGUCGCCCACAUGAGGAUCACCCGUGUCUGGAG [#11 Exclusion - Arginine A]
[A] condition met

====

- Tested on: MS2 coat protein
- ASSAY_NAME: apparent KD of MS2 coat protein; designed switch direction (-1 OFF switch, 1 ON switch): -1; higher = weaker reporter binding
- PARTICULARS: input ligand: FMN 200 uM
apparent KD of MS2 coat protein values, listed per item
Phrase the answer as number then unit, nothing more needed.

The value of apparent KD of MS2 coat protein measured for the sequence CGUUCGCGAGGAUAUGCAUUCGAGUCCACUACGUGUCUGGGACUUGAGGAUCACCCAAGUAGAAGGCGCCUCAA [salish99_ex2_r4_651] (Eterna round: R97, puzzle: Exclusion 2) turned out to be 171 nM

====

- Tested on: MS2 coat protein
- ASSAY_NAME: apparent KD of MS2 coat protein; designed switch direction (-1 OFF switch, 1 ON switch): -1; higher = weaker reporter binding
- PARTICULARS: input ligand: FMN 200 uM
Response key: true means apparent KD of MS2 coat protein >= 0.08 µM; false means apparent KD of MS2 coat protein < 0.08 µM.

Study these solved cases before continuing.
SEQUENCE_CHAIN	ANSWER_LABEL
GUCGUGCGGCUUUGCUGUACGAGUACAUGAGGAUCACCCAUGUAGGAUAUGGUACGCUUUGCGUGCCAGAAGGGCGUGCGUUGG [salish99_ExNG3_r04_006] (Eterna round: R96, puzzle: Exclusion NG 3)	false
AUUUACAAGCUAAGAUCCUACAUGAGGAUCACCCAUGUGGUCCGGUGACGUGAGUCACCGGACUUAGCUCGUCUUGG [salish99_S_TOV1_R5_083] (Eterna round: R97, puzzle: Sensor, turn-off variant 1)	false
UUUAAUUGUGACAUGGGUGACAUGAGGAUCACCCAUGUCACAAGCUUUUUGCUCGUCUUAUAAUUAACCCAUGUCAC [Stov1/13-A1] (Eterna round: R97, puzzle: Sensor, turn-off variant 1)	false

Now, please, on to the next sequence.
[Q] Is apparent KD of MS2 coat protein at least 0.08 µM? Consider UAAUUGAUUAAUAAAUAAUACAUGAGGAUCACCCAUGUAGAUCCUACAUACCAUUUAAGUAGCUCGUCUUAUUAUUA [Sensor-V1 #62] (Eterna round: R97, puzzle: Sensor, turn-off variant 1)
[A] true
